# Target Or System: [35S]-TBPS binding, rat brain cortical membranes
# Protocol: Steroid inhibition of [35S]-TBPS binding
# Test Parameters: 3 nM [35S]-TBPS, in the presence of 5 mM GABA

Compound	IC50
CCOC(=O)c1cnc(C[C@H](C)[C@H]2CC[C@H]3[C@@H]4CC[C@H]5C[C@](C)(O)CC[C@@H]5[C@H]4CC[C@]23C)o1 (stereo in doubt)	< 100 nM
COC[C@@]1(O)CC[C@H]2[C@H](CC[C@@H]3[C@@H]2CC[C@]2(C)[C@@H](CCn4ccnn4)CC[C@@H]32)C1	< 100 nM
CC[C@@]1(O)CC[C@@]2(C)[C@H](CC[C@@H]3[C@@H]2CC[C@]2(C)[C@@H]([C@H](C)Cn4nccc4C#N)CC[C@@H]32)C1	< 100 nM
COC[C@@]1(O)CC[C@H]2[C@H](CC[C@@H]3[C@@H]2CC[C@]2(C)[C@@H]([C@@H](C)Cn4nccc4C#N)CC[C@@H]32)C1	< 100 nM
C[C@@H](NC(=O)c1ccccc1)[C@H]1CC[C@H]2[C@@H]3CC[C@@H]4C[C@](C)(O)CC[C@@H]4[C@H]3CC[C@]12C	< 100 nM
COC[C@@]1(O)CC[C@H]2[C@H](CC[C@@H]3[C@@H]2CC[C@]2(C)[C@@H](CCn4nnc(C)n4)CC[C@@H]32)C1	< 100 nM
C[C@@]1(O)CC[C@H]2[C@H](CC[C@@H]3[C@@H]2CC[C@]2(C)[C@@H]([C@H](Nc4ccccc4)C(F)(F)F)CC[C@@H]32)C1	100 to 1000 nM
CCOC[C@@]1(O)CC[C@H]2[C@H](CC[C@@H]3[C@@H]2CC[C@]2(C)[C@@H]([C@@H](CC)Nc4ccc(C#N)nc4)CC[C@@H]32)C1	100 to 1000 nM
CCOC[C@@]1(O)CC[C@@]2(C)[C@H](CC[C@@H]3[C@@H]2CC[C@]2(C)[C@@H]([C@H](C)Cn4ccc(C#N)n4)CC[C@@H]32)C1	< 100 nM
CC[C@@]1(O)CC[C@H]2[C@H](CC[C@@H]3[C@@H]2CC[C@]2(C)[C@@H]([C@@H](C)Cn4cc(C#N)cn4)CC[C@@H]32)C1	< 100 nM
C[C@@H]1CCCC(=O)N1C[C@H]1CC[C@H]2[C@@H]3CC[C@@H]4C[C@](C)(O)CC[C@@H]4[C@H]3CC[C@]12C	1000 to 10000 nM
